Assay: Inhibition of HIV1 LTR-driven CAT gene expression in PMA-stimulated human JURKAT cells
Assay type: cell-based
Conditions: Human immunodeficiency virus 1, Jurkat
pIC50: −log10 of the molar value.
The entries below are paired with their reported pIC50.

Below: 3 compounds and their reported pIC50.
>>> measured("COc1ccc(Cc2cc(C3CCN(C(=O)c4ccc5c(c4)OCO5)CC3)nc(N)n2)cc1")
6.22
>>> measured("COc1ccc(Cc2cc(C3CCN(C(=O)c4ccc5nsnc5c4)CC3)nc(N)n2)cc1")
"< 5.30"
>>> measured("COc1ccc(Cc2cc(C3CCN(C(=O)c4ccc5ocnc5c4)CC3)nc(N)n2)cc1")
"< 5.30"

Any idea what its pIC50 is? The compound is COc1ccc(Cc2cc(C3CCN(C(=O)c4ccc([N+](=O)[O-])cc4)CC3)nc(N)n2)cc1
< 5.30
